Tested on: K4 kissing-loop RNA reporter;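 further: bound reporter read as fluorescence of individual clusters on recovered sequencing chips by microscopy, with normalized cluster intensities fitted with a binding model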
experimentNotes: apparent KD of K4 kissing-loop reporter; higher = weaker reporter binding
particulars: Eterna round: R107; input ligand: theophylline 20 uM
For each record, write down the corresponding apparent KD of K4 kissing-loop reporter.
Provide the reading as a plain figure in µM.

State its apparent KD of K4 kissing-loop reporter for this sequence: UAACGCUGACAGCAACAAUUCGGGCCUGAUACCAGCAAUUUUUCAUGCCCUUGGCAGCAGAGUGAUGUUUUCUGUCUAUUUAGUC [theeternabot_exclusion_KL_Theo_A_23]
0.7

State its apparent KD of K4 kissing-loop reporter for this sequence: `UCCUGCAAUCAACCACGAAAGUGGUUCGAUACCAGAGUCGAAAGACUCCCUUGGCAGCGAGUGAUGUUCGAGCAGGUAAAAUAAA`
0.646

State its apparent KD of K4 kissing-loop reporter for this sequence: `AAAAUAACCCAGUGAUGUUGGUAUACAGAUACCAGCGACGAAAGUCGCCCUUGGCAGCUGUGGACGUACAAAAUAAGUACGUCCU`
0.902

State its apparent KD of K4 kissing-loop reporter for this sequence: CUUAAGAUAUGAGUGAUGUUCAUGUCCGAAGGAGCGUGCGAAAGCACAGGUAGGUCGCGGAUGUGAGUGAUGUUCAUGUAAGCGA [KL-XArg-A12 #analogue]
0.135

State its apparent KD of K4 kissing-loop reporter for this sequence: AUCAGUGUCUCACGCUACGACAUAUACGAUACCAGUCACCCUGAUGACCCUUGGCAGCGUCAACGAGUGAUGUUCGGGUUCUAGA [theeternabot_sameState_KL_Theo_A_1]
0.389

State its apparent KD of K4 kissing-loop reporter for this sequence: GCAACAUUGGGAGGAUAUCAUUCUGAGUGAUGUUCAGGGUUCAGCUAACGAAAGUUAGUUGUACCAUGAGAAGGUCUAAUGUUGC [Omei KL FMN B SS A v6]
1.02

State its apparent KD of K4 kissing-loop reporter for this sequence: GGUGCUGUCUGUGCCGCCCUCCUCGUCCCUCGAGGACCGGUACGGCCGCCACUCGAGUGAUGUUCGGGUAGCCAUCCCUGCUAGC [Bdazzled - #19 Exc. Tryptophan A]
0.59

State its apparent KD of K4 kissing-loop reporter for this sequence: UGAUAGGACAGAAGGAGCGGAAGUGAUGUUUCCAAAAGGAUAAGGUGUCAAAAGACACCCUUCCAGGUAGGUCGCUGUCCUAUCU [ArgBX 13 #Palindromic #SwitchBubble #StaticStem]
0.145

State its apparent KD of K4 kissing-loop reporter for this sequence: AGCGCCUAAGCCGAUACCAGAAACGCGGUGCGUCGCACGAUUAACUAGGAAAGUGAUGUUUUCCCUUGGCAGCGGGACCUGUGAG [theeternabot_exclusion_KL_Theo_B_11]
0.133

State its apparent KD of K4 kissing-loop reporter for this sequence: GUUAUUCUAAACGCAGUAGUGAUGUUGAUGCGAGGACCGGUACGGCCGCCACUCGACUGCCGUCACGCCCGUCCAACAGCCGGAG [theeternabot_exclusion_KL_Trp_A_20]
0.254

State its apparent KD of K4 kissing-loop reporter for this sequence: UGCGCUAUGUCCUAAAACGUCCUCCGGGAUACCAGAGUCUUUUUAUUCCCUUGGCAGCUUGAGUGAUGUUUGAUGCCGUUCUUGU [srrevmullin]
0.287
